test_system: Glucose transporter (Leishmania mexicana) (UniProt O61059)
test_method_notes: ST_JUDE_LEISH: Cytotoxicity at 2uM final concentration against transgenic Leishmania Mexicana promastigotes LmGT2 that are glucose transport deficient and complemented with the L. Mexicana glucose transporter 2. Activity is measured by DNA content using SYBR green in vitro
Type: functional
outcome_measure: inhibition (%)
I only need the number, in %, no unit after it.

Here is how some compounds turned out for inhibition.
compound=O=C(NCc1cccs1)[C@H](Cc1ccccc1)Nc1ccnc(NCCc2ccccc2)n1 outcome_measure=inhibition measured=-0.38
compound=Cc1nc2ccc(S(=O)(=O)Nc3ccc(C(=O)N[C@@H](CCC(=O)O)C(=O)O)cc3)cc2c(=O)[nH]1 outcome_measure=inhibition measured=0.45
compound="O=C(/C=C/c1cccc(Cl)c1)N1CCC(C(O)CN2CCC3(CC2)CN(C(=O)/C=C/c2cccc(Cl)c2)c2ccccc23)CC1 (stereo not given)" outcome_measure=inhibition measured=0.82

In: Return inhibition measured with Glucose transporter (Leishmania mexicana) (UniProt O61059) given this compound: `O=S(=O)(NCCN1CCCC1)c1ccc(-c2ccc(CNCc3ccsc3)cc2)s1`
Out: 4.76

In: Return inhibition measured with Glucose transporter (Leishmania mexicana) (UniProt O61059) given this compound: COCC(C)n1c(C)cc(C(=O)CSc2nnc(Nc3ccccc3)s2)c1C (stereo not given)
Out: -0.94

====

test_system: Hexose transporter 1 (Plasmodium falciparum) (UniProt O97467)
test_method_notes: ST_JUDE_LEISH: Cytotoxicity at 2uM final concentration against transgenic Leishmania Mexicana promastigotes LmPfHT that are glucose transport deficient and complemented with the Plasmodium falciparum hexose transporter. Activity is measured by DNA content using SYBR green in vitro
Assay type: functional
Catalogue of compounds with associated inhibition
I only need the number, in %, no unit after it.

In: May I ask what inhibition has been recorded for `NCc1ccc(CNCc2cccc(-c3ccc(-c4nc5cc(C(F)(F)F)ccc5[nH]4)cc3)c2)cc1` ?
Out: 1.34

In: May I ask what inhibition has been recorded for CCCCCCCN1CC[C@@H](CCCc2ccnc3ccc(OCC4CCCNC4)cc23)[C@@H](CC)C1 (some centres undefined) ?
Out: 3.17

In: May I ask what inhibition has been recorded for `Cc1ccccc1Cn1ccc2c3c(N)nc(N)nc3ccc21` ?
Out: 87.7

In: May I ask what inhibition has been recorded for `C[C@@H](CC1CCCCC1)NCc1cccc(NS(=O)(=O)c2ccc(O)c(-c3ccno3)c2)c1` ?
Out: 8.37

====

test_system: Solute carrier family 2, facilitated glucose transporter member 1 (Homo sapiens) (UniProt P11166)
Sequence (P11166 whole entry): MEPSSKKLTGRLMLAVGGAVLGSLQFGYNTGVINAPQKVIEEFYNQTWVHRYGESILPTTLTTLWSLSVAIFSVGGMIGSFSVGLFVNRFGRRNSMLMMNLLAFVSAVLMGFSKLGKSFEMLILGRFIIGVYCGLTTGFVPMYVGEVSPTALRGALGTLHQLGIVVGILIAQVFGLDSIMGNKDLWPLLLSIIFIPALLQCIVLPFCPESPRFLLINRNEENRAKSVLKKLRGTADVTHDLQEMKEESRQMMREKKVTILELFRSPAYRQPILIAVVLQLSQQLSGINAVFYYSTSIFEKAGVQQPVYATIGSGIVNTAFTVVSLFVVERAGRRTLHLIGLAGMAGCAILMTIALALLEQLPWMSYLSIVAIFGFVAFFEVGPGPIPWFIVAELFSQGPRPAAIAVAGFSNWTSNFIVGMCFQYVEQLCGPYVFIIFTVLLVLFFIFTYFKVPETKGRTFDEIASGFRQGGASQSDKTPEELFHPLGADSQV
test_method_notes: ST_JUDE_LEISH: Cytotoxicity at 2uM final concentration against transgenic Leishmania Mexicana promastigotes LmGLUT1 that are glucose transport deficient and complemented with the human glucose transporter GLUT1. Activity is measured by DNA content using SYBR green in vitro
Assay type: functional
Catalogue of molecules with associated inhibition
I only need the number, in %, no unit after it.

molecule="COc1ccc(C(=O)NC2CCN(c3ccnc4cc(Cl)ccc34)C2)cc1 (stereo unspecified)" outcome_measure=inhibition measured=1.59

In: May I ask what inhibition has been recorded for CSC1=NC(C)(C)CC2(CC(c3cccc(C)c3)c3cc(Cl)c(O)cc3O2)N1 (stereo unspecified) ?
Out: 0.95

====

test_system: Hexose transporter 1 (Plasmodium falciparum) (UniProt O97467)
test_method_notes: ST_JUDE_LEISH: Cytotoxicity at 2uM final concentration against transgenic Leishmania Mexicana promastigotes LmPfHT that are glucose transport deficient and complemented with the Plasmodium falciparum hexose transporter. Activity is measured by DNA content using SYBR green in vitro
Assay type: functional
Catalogue of compounds with associated inhibition
I only need the number, in %, no unit after it.

Here is how some compounds turned out for inhibition.
compound=Cc1ccc(NC(=S)NC2CCN(CCCCCNC(=O)/C=C/c3ccc(Cl)c(Cl)c3)CC2)cc1Cl measured=-0.31
compound=CN1CCN(S(=O)(=O)c2cccc(Nc3nccc(N(C)c4ccc5c(c4)nc(NC(=O)c4cccs4)n5C)n3)c2)CC1 measured=0.27
compound=COc1ccccc1-c1ccc2nnc(SCC(=O)Nc3ccc4c(c3)OCCO4)n2n1 measured=4.26
compound="Oc1ccc(C2CNCCc3c2cc(O)c(OCc2ccccc2)c3Cl)cc1 (centres undefined)" measured=-1.5
compound=COc1cccc(C=Cc2nc(=O)c3ccccc3o2)c1OC measured=0.32
compound=Cc1cc(N(C)CCN(C)C)nc(Nc2ccc(Cl)cc2)n1 measured=5.67

In: May I ask what inhibition has been recorded for CCCCCCCn1c(=N)n(CC(O)c2ccc(Cl)c(Cl)c2)c2ccccc21 (centres undefined) ?
Out: 7.92

In: May I ask what inhibition has been recorded for CN1CCC(Oc2cc(CN3CC[C@H](NC(=O)c4ccc(Cl)c(Cl)c4)C3)ccc2I)C1 (some centres undefined) ?
Out: 0.84

In: May I ask what inhibition has been recorded for `O=C(Cc1ccc(NC(=O)c2ccc(O)c(-c3cccc([N+](=O)[O-])c3)c2)cc1)NCCN1CCCCC1` ?
Out: -1.26
